SUBJECT_OF_TEST: NEDD8-conjugating enzyme Ubc12 (Homo sapiens) + NEDD8-activating enzyme E1 regulatory subunit (Homo sapiens) (UniProt P61081+Q13564)
Sequence (P61081 whole entry, looked up): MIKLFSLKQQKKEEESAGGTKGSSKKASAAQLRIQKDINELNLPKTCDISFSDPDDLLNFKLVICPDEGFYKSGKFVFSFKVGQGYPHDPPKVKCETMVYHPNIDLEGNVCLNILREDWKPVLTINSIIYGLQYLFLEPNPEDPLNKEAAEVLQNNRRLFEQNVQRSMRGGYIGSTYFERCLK
Sequence (Q13564 whole entry, looked up): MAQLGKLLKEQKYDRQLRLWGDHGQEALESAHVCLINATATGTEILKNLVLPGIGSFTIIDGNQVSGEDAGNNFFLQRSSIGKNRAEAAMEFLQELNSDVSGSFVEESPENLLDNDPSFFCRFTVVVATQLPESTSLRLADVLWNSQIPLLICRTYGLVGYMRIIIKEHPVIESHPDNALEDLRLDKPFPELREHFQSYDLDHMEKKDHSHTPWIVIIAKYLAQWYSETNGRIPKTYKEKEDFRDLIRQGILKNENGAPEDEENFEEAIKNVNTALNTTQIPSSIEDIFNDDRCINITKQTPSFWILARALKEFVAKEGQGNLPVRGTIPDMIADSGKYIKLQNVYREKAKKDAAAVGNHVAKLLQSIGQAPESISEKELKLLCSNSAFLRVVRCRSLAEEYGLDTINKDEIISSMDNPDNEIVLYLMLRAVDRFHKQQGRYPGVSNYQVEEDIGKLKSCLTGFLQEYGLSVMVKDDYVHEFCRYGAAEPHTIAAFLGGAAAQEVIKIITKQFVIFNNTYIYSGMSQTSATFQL
EXPERIMENTAL_PROTOCOL: inhibitors of CUL1 neddylation, potency, dose response, biochemical, TR-FRET (AID 652247)
CONDITION_NOTES: in vitro CUL1 neddylation
Calls of active or inactive are those of the source. How the calls were made is not given here.
Response enum: true = active, false = inactive

COMPOUND	CLASS_LABEL
Cc1cccc(C)c1NC(=O)C(c1ccncc1)n1c(=O)c(-c2ccccc2)nc2ccccc21 (stereo unspecified)	false
O=c1[nH]c2ccccc2nc1-c1ccccc1	false
COc1ccc2cc3cc(C(=O)NCCc4ccc(OC)c(OC)c4)oc3nc2c1	true
CCOC(=O)Cn1nc(/C=C/c2ccccc2)ccc1=O	false
COc1cc2c(cc1OC)-c1cc(NCc3ccccn3)nc(=O)n1CC2	false
CCOC(=O)C1=C(COCCN)NC(C)=C(C(=O)OC)C1c1ccccc1Cl (stereo unspecified)	false

I would be grateful if you could indicate the recorded call for Nc1ncnc2c1ncn2C1OC(COP(=O)(O)O)C(O)C1O (stereo unspecified) .
true

I would be grateful if you could indicate the recorded call for "COCCCNC(=O)/C(C#N)=C/c1c(N2CCN(c3ccccc3)CC2)nc2ccccn2c1=O" .
false

I would be grateful if you could indicate the recorded call for "O=C(CCc1ccccc1)Nc1nnc(-c2ccccn2)o1" .
false

I would be grateful if you could indicate the recorded call for "CS(=O)(=O)N(CC(=O)N/N=C/c1cccc2c1OCCO2)c1ccccc1Br" .
false

I would be grateful if you could indicate the recorded call for "CCOc1cc(/C=C/C(=O)Nc2ccc(C(=O)NCCN(CC)CC)cc2)ccc1OCC(C)C" .
false

###

SUBJECT_OF_TEST: NEDD8-conjugating enzyme Ubc12 (Homo sapiens) + NEDD8-activating enzyme E1 regulatory subunit (Homo sapiens) (UniProt P61081+Q13564)
EXPERIMENTAL_PROTOCOL: inhibitors of CUL1 neddylation, potency, dose response, biochemical, TR-FRET (AID 652247)
CONDITION_NOTES: in vitro CUL1 neddylation
Activity calls are given as the source filed them. The rule behind the calls is not given here.
Response enum: YES = active, NO = inactive

COMPOUND	CLASS_LABEL
Cc1ccc(-c2cc(C(=O)NCCCN3CCOCC3)c3ccccc3n2)cc1	NO
Cc1ccc(Cn2c(=N)c(C(=O)NCCN3CCOCC3)cc3c(=O)n4ccccc4nc32)cc1	YES
Cc1cccn2c(=O)c3cc(C(=O)NC4CCCC4)sc3nc12	YES
Cc1cc(C)n2nc(-c3cnn(C)c3C(F)(F)F)cc2n1	NO
CSc1ccc(/C=N/n2nnnc2N)cc1	NO

I would be grateful if you could indicate the recorded call for "COc1ccc(-c2cc(=O)c3cc(O)ccc3o2)cc1" .
NO

I would be grateful if you could indicate the recorded call for "CCOC(=O)N1CCN(S(=O)(=O)c2ccc3c4c(cccc24)C(=O)N3)CC1" .
NO

I would be grateful if you could indicate the recorded call for CC1CCCC(C)N1C(=O)CN1c2cccc3cccc(c23)S1(=O)=O (stereo not drawn) .
NO

I would be grateful if you could indicate the recorded call for "CC(=O)Nc1nc(C)c(-c2csc(Nc3ccc(S(N)(=O)=O)cc3)n2)s1" .
YES

I would be grateful if you could indicate the recorded call for "COc1ccc(-c2cn3cccnc3n2)cc1NC(=O)c1cccs1" .
NO

I would be grateful if you could indicate the recorded call for "Cc1ccccc1NC(=O)NNC(=O)c1ccc2ccccc2c1O" .
NO

I would be grateful if you could indicate the recorded call for "N#Cc1ccc(/C=C2\CCn3c2nc2cc(C(=O)O)ccc2c3=O)cc1" .
YES

I would be grateful if you could indicate the recorded call for "O=C(Nc1cccnc1Cl)c1cc(-c2cccc(O)c2)on1" .
YES

I would be grateful if you could indicate the recorded call for "COCc1cc(C)nc(NC2CC(C)(C)NC(C)(C)C2)c1C#N" .
NO

I would be grateful if you could indicate the recorded call for "COC(=O)c1nc2cc3c(cc2c(C)c1C(=O)OC)OCO3" .
NO

I would be grateful if you could indicate the recorded call for "c1cn2c(-c3ccoc3)cncc2n1" .
NO

I would be grateful if you could indicate the recorded call for "CN=Cc1c(NC)nc2c(C)cccn2c1=O" .
NO

I would be grateful if you could indicate the recorded call for Cc1cccc(C)c1NC(=O)C(C1CC1)n1c(=O)c(-c2ccccc2)nc2ccccc21 (stereo not drawn) .
NO

I would be grateful if you could indicate the recorded call for "C[n+]1ccc(-c2ccccc2)c2ccccc21" .
NO

I would be grateful if you could indicate the recorded call for "COc1ccc(CC(=O)N/N=C\c2cc(Br)c(O)c(Br)c2)cc1" .
NO

I would be grateful if you could indicate the recorded call for "CCCN(CC(=O)Nc1ccccc1C)C(=O)c1ccc(-c2ccc(C(C)=O)cc2)o1" .
YES

###

SUBJECT_OF_TEST: NEDD8-conjugating enzyme Ubc12 (Homo sapiens) + NEDD8-activating enzyme E1 regulatory subunit (Homo sapiens) (UniProt P61081+Q13564)
EXPERIMENTAL_PROTOCOL: inhibitors of CUL1 neddylation, potency, dose response, biochemical, TR-FRET (AID 652247)
CONDITION_NOTES: in vitro CUL1 neddylation
Activity calls are given as the source filed them. The rule behind the calls is not given here.
Response enum: 1 (yes) = active, 0 (no) = inactive

Here's what some known entries look like.
COMPOUND	CLASS_LABEL
COc1cccc(Cn2cc(/C=N/NC(=O)c3cc(O)cc(O)c3)c3ccccc32)c1	0 (no)
CCn1c(=O)c(-c2ccccc2)c(O)c2ccccc21	1 (yes)
NC(=O)C1CCN(C(=O)c2ccc3nc(-c4ccccc4)c(-c4ccccc4)nc3c2)CC1	0 (no)
Cc1cc(NC(=O)COC(=O)c2nccnc2N)n(-c2ccccc2)n1	1 (yes)
c1ccc(-c2oc3ncnc(NCCCN4CCOCC4)c3c2-c2ccccc2)cc1	0 (no)

Here's the next entry for you.
I would be grateful if you could indicate the recorded call for "O=C(O)c1ccc2c(=O)n3c(nc2c1)/C(=C/c1ccc(C(F)(F)F)cc1)CC3" .
0 (no)
